assay: Hydrolysis half-lifes of active ester derivatives by 1H-NMR; assay type: physicochemical; settings: 50 mM deuterated phosphate buffer, pD 7.2, room temperature, 1 mM active ester
Recorded Hydrolysis half-life values for a group of molecules are listed next.
property label: Hydrolysis half-life (min)

molecule | property label | endpoint result
O=C(COc1ccc(Cl)cc1Cl)ON1C(=O)CCC1=O [(1b)] | Hydrolysis half-life | 25
O=C1N[C@H]2[C@H](CS[C@H]2CCCCC(=O)ON2C(=O)CC(S(=O)(=O)[O-])C2=O)N1.[Na+] (stereo partly drawn) [Sulfo-NHS-biotin, Sulfo-Succinimidyl-(+)-biotin] | Hydrolysis half-life | 62
O=C(CCCC[C@@H]1SC[C@@H]2NC(=O)N[C@@H]21)NCCCCCC(=O)ON1C(=O)CC(S(=O)(=O)[O-])C1=O.[Na+] (stereo partly drawn) [Sulfo-NHS-LC-biotin, Sulfo-LC-(+)-Biotin] | Hydrolysis half-life | 101
